Parameter 'readout' = pIC50; parameter 'system' = SOS1 nucleotide exchange of wild-type KRAS (Homo sapiens (Human)).
Sequence (Q07889 564-1049): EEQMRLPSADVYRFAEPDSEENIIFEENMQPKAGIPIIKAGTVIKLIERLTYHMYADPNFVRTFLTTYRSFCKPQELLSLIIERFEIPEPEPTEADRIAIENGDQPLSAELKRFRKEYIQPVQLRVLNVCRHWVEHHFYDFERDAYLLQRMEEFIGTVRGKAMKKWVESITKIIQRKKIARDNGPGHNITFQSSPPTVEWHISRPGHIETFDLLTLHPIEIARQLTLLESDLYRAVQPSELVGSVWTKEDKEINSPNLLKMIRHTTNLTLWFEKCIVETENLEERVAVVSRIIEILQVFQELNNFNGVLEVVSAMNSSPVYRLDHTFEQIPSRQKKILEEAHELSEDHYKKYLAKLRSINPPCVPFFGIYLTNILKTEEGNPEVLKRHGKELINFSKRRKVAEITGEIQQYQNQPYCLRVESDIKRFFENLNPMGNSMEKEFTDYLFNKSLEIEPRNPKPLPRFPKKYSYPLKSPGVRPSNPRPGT
Hey, just a heads up that pIC50 is the negative log base 10 of the concentration in molar.

// solved cases for pIC50 follow
Cc1nc(N[C@H](C)c2cccc(C(F)F)c2F)c2cc(C3=CCNCC3)c(=O)n(C)c2n1	7.31
Cc1nc(N[C@H](C)c2cccc(C(F)F)c2F)c2cc(N3CCN(C)CC3=O)c(=O)n(C)c2n1	6.95
C[C@@H](Nc1ncnc2c1cc(C1CCN(C3COC3)CC1)c(=O)n2C)c1cccc(C(F)F)c1F	7.52
C[C@@H](Nc1ncnc2c1cc(C(=O)N1CCn3cncc3C1)c(=O)n2C)c1cccc(C(F)F)c1F	7.06
Cc1nc(N[C@H](C)c2cccc(C(F)F)c2F)c2cc(N3CC(F)(F)C3)c(=O)n(C)c2n1	5.68

Kindly note: SOS1 nucleotide exchange of wild-type KRAS (Homo sapiens (Human)), `C[C@@H]1COC[C@H](C)N1C(=O)c1cc2c(N[C@H](C)c3cccc(C(F)F)c3F)ncnc2n(C)c1=O` , pIC50 value reported: 6.97

Kindly note: SOS1 nucleotide exchange of wild-type KRAS (Homo sapiens (Human)), `Cc1nc(N[C@H](C)c2cccc(C(F)F)c2F)c2cc(C3=CCN(C4COC4)CC3)c(=O)n(C)c2n1` , pIC50 value reported: 7.58

###

Target: SOS1 catalytic domain (residues 564-1049) (Homo sapiens (Human))
Sequence (Q07889 564-1049): as above
# Kd annotations
Give your result in nM as a bare value.

// solved cases for Kd follow
C[C@@H](Nc1ncnc2c1cc(C(=O)N1CCOCC1)c(=O)n2C)c1cccc(C(F)F)c1F	118
C[C@@H](Nc1ncnc2c1cc(C(=O)N1CC(C)(O)C1)c(=O)n2C)c1cccc(C(F)F)c1F	404
C[C@@H](Nc1ncnc2c1cc(-c1cnc(F)nc1)c(=O)n2C)c1cccc(C(F)F)c1F	115

Noted for C[C@@H](Nc1ncnc2c1cc(C1(O)CCS(=O)(=O)C1)c(=O)n2C)c1cccc(C(F)F)c1F (stereo partly shown) : its Kd reads 128

Noted for `Cc1nc(N[C@H](C)c2cccc(C(F)F)c2F)c2cc(N3CCNCC3=O)c(=O)n(C)c2n1` : its Kd reads 153

Noted for `CC(=O)N1CCC(F)(c2cc3c(N[C@H](C)c4cccc(C(F)F)c4F)ncnc3n(C)c2=O)CC1` : its Kd reads 37.4

Noted for `Cc1nc(N[C@H](C)c2cccc(C(F)F)c2F)c2cc(C3CCN(CC(F)(F)F)CC3)c(=O)n(C)c2n1` : its Kd reads 796

###

Biological target: SOS1 catalytic domain (residues 564-1049) (Homo sapiens (Human))
pKd: −log10 of the molar value.
Decide by pKd: equal to or exceeding 7 means yes (1), less means no (0).

Take a look at these entries with their results.
C[C@@H](Nc1ncnc2c1cc(C(=O)N1CCN(C)c3ncccc31)c(=O)n2C)c1cccc(C(F)F)c1F [Example 26-49]	no (0)
C[C@@H](Nc1ncnc2c1cc(C1=CCNC1)c(=O)n2C)c1cccc(C(F)F)c1F [Example 1-1]	yes (1)

Now turn to the next molecule.
Say whether Cc1nc(N[C@H](C)c2cccc(C(F)F)c2F)c2cc(-c3cncnc3)c(=O)n(C)c2n1 [Example 21-4] shows pKd of 7 or more.
no (0)
